# Target Under Test: long isoform of human D2 receptor (Homo sapiens)
# Run Description: cAMP HTRF Agonist Assay (DRD2L PathHunter CHO-K1 cells, forskolin-stimulated)
pIC50: −log10 of the molar value.
Test Readout: pIC50

smiles_entry=c1ccc(N2CCN(CCCCOc3ccc4cn[nH]c4n3)CC2)nc1 test_readout=pIC50 value_reported="> 8.00"
smiles_entry=O=C1NCCc2ccc(OCCCCN3CCc4nn(-c5ccccc5)cc4C3)nc2N1 test_readout=pIC50 value_reported="7.00 to 8.00"
smiles_entry=O=c1ccc2ccc(OCCCCN3CCc4nn(-c5ccccc5)cc4C3)nc2[nH]1 test_readout=pIC50 value_reported="7.00 to 8.00"
smiles_entry=Oc1cccc2ccc(OCCCCN3CCc4sccc4C3)nc12 test_readout=pIC50 value_reported="< 5.00"

Report pIC50 for Oc1cccc2ccc(OCCCCN3CCN(c4cccc(Cl)c4Cl)CC3)nc12 please.
7.00 to 8.00

Dear colleague, I am looking for the recorded pIC50 of the following compound: N#Cc1ccc2c(c1)CCN(CCCCOc1ccc3cccc(O)c3n1)C2
< 5.00

// lookup pIC50 for O=C1CCc2ccc(OCCCCN3CCc4c(cnn4-c4ccccc4)C3)cc2N1
> 8.00

So what does the record say about pIC50 for N#Cc1cccc2c1CCN(CCCCOc1ccc3c(n1)NC(=O)CC3)C2 ?
7.00 to 8.00

I would be grateful if you could share the reported pIC50 for Clc1ccccc1N1CCN(CCCCOc2ccc3cn[nH]c3c2)CC1 .
> 8.00

###

Recorded IC50 values for a group of molecules are listed next.
# Target Under Test: long isoform of human D2 receptor (Homo sapiens, UniProt P14416)
# Sequence (P14416 whole entry, canonical isoform): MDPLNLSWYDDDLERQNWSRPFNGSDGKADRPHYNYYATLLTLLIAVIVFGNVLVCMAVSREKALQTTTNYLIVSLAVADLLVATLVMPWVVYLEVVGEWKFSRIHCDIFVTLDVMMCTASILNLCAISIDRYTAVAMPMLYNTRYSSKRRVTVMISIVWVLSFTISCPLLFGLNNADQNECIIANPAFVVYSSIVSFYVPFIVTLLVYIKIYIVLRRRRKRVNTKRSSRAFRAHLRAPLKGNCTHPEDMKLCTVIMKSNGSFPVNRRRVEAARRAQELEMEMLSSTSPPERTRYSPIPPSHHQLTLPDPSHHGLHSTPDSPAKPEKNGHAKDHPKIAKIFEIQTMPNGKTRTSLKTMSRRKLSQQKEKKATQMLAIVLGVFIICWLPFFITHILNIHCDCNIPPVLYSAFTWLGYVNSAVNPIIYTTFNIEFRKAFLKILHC
# Run Description: Arrestin Antagonist Assay (DRD2L PathHunter CHO-K1 cells, vs EC80 dopamine)

// solved cases for IC50 follow
molecule="COc1cccnc1N1CCN(CCCCOc2ccc3cccc(O)c3n2)CC1 [Compound 9]" value_reported="0.01 to 0.1 µM"
molecule="CCS(=O)(=O)Nc1cccc(OCCCCN2CCc3ccccc3C2)n1 [Compound 43]" value_reported="0.1 to 1 µM"
molecule="Clc1cccc(N2CCN(CCCCOc3ccc4cn[nH]c4n3)CC2)c1Cl [Compound 1]" value_reported="< 0.01 µM"
molecule="Oc1cccc2ccc(OCCCCN3CCc4sccc4C3)nc12 [Compound 18]" value_reported="1 to 10 µM"
molecule="CC(=O)Nc1cccc(OCCCCN2CCc3ccccc3C2)n1 [Compound 40]" value_reported="0.1 to 1 µM"
molecule="O=C1CCc2ccc(OCCCCN3CCc4c(cnn4-c4cccc(Cl)c4)C3)cc2N1 [Compound 32]" value_reported="< 0.01 µM"

Need IC50 of O=c1ccc2ccc(OCCCCN3CCc4nn(-c5ccccc5)cc4C3)nc2[nH]1 [Compound 66] , thanks.
0.01 to 0.1 µM

If you can, please state the reported IC50 value of N#Cc1ccc2c(c1)CCN(CCCCOc1ccc3c(n1)NC(=O)CC3)C2 [Compound 73] .
0.1 to 1 µM

Recorded IC50 for O=C1CCc2ccc(OCCCCN3CCc4nn(-c5ccccc5)cc4C3)cc2N1 [Compound 30] , please?
0.01 to 0.1 µM

###

Listing of entries alongside the reported IC50.
# Target Under Test: long isoform of human D2 receptor (Homo sapiens)
# Run Description: Arrestin Antagonist Assay (DRD2L PathHunter CHO-K1 cells, vs EC80 dopamine)

Guide cases for IC50, answers given:
smiles_entry=COc1ccc2c(c1)CCN(CCCCOc1ccc3c(n1)NC(=O)CC3)C2 value_reported="10 to 100 nM"
smiles_entry=O=C1CCc2ccc(OCCCCN3CCc4c(Cl)cccc4C3)nc2N1 value_reported="> 10000 nM"
smiles_entry=Clc1cccc2c1CCN(CCCCOc1cccc(-c3cc[nH]n3)n1)C2 value_reported="> 10000 nM"
smiles_entry=Oc1cccc2ccc(OCCCCN3CCc4ccccc4C3)nc12 value_reported="1000 to 10000 nM"

# get_value(readout='IC50', item= CCOc1ccccc1N1CCN(CCCCOc2ccc3cn[nH]c3c2)CC1 )
10 to 100 nM

###

# Target Under Test: long isoform of human D2 receptor (Homo sapiens, UniProt P14416)
# Run Description: Arrestin Agonist Assay (DRD2L PathHunter CHO-K1 cells, β-arrestin recruitment)
Test Readout: EC50

smiles_entry=Oc1cccc2ccc(OCCCCN3CCc4c(Cl)cccc4C3)nc12 value_reported="100 to 1000 nM"
smiles_entry=O=c1ccc2ccc(OCCCCN3CCc4ccsc4C3)nc2[nH]1 value_reported="> 10000 nM"

Can you look up the measured EC50 of O=C1CCc2ccc(OCCCCN3CCc4cc(Cl)ccc4C3)nc2N1 for me?
> 10000 nM

GET /values?readout=EC50&item= O=C1CCc2ccc(OCCCCN3CCc4nn(-c5ccccc5)cc4C3)nc2N1
> 10000 nM

Could you share which EC50 value was measured for O=C1NCCc2ccc(OCCCCN3CCc4sccc4C3)nc2N1 ?
> 10000 nM

Which EC50 value is on record for Clc1cccc(N2CCN(CCCCOc3cccc(-c4cc[nH]n4)n3)CC2)c1Cl ?
< 10 nM

Form field: reported EC50 of O=C1CCc2ccc(OCCCCN3CCc4sccc4C3)nc2N1
> 10000 nM

###

# Target Under Test: long isoform of human D2 receptor (Homo sapiens)
# Run Description: Arrestin Agonist Assay (DRD2L PathHunter CHO-K1 cells, β-arrestin recruitment)
Test Readout: EC50

Use these answered entries as a reference point.
smiles_entry=Oc1cccc2ccc(OCCCCN3CCc4cc(C(F)(F)F)ccc4C3)nc12 test_readout=EC50 value_reported="> 10000 nM"
smiles_entry=N#Cc1cccc2c1CN(CCCCOc1ccc3c(n1)NC(=O)CC3)CC2 test_readout=EC50 value_reported="> 10000 nM"
smiles_entry=O=C1CCc2ccc(OCCCCN3CCc4ncsc4C3)cc2N1 test_readout=EC50 value_reported="< 10 nM"
smiles_entry=CN(C)c1ncnc2c1CCN(CCCCOc1ccc3c(c1)NC(=O)CC3)C2 test_readout=EC50 value_reported="100 to 1000 nM"
smiles_entry=Oc1cccc2ccc(OCCCCN3CCN(c4ccccn4)CC3)nc12 test_readout=EC50 value_reported="10 to 100 nM"

Give its EC50 value. Item: Clc1ccccc1N1CCN(CCCCOc2ccc3cn[nH]c3c2)CC1
< 10 nM

Return reported EC50; argument: O=c1ccc2ccc(OCCCCN3CCc4cccc(C(F)(F)F)c4C3)nc2[nH]1
> 10000 nM

Quick one: EC50 for COc1ccc2c(c1)CCN(CCCCOc1ccc3ccc(=O)[nH]c3n1)C2 ?
< 10 nM

Record request: EC50 value, item O=c1ccc2ccc(OCCCCN3CCc4cc(C(F)(F)F)ccc4C3)nc2[nH]1
< 10 nM

###

Parameter IC50: see the listing below.
# Target Under Test: long isoform of human D2 receptor (Homo sapiens)
# Run Description: cAMP HTRF Agonist Assay (DRD2L PathHunter CHO-K1 cells, forskolin-stimulated)

Notebook entry, long isoform of human D2 receptor (Homo sapiens) assay: IC50 of Oc1cccc2ccc(OCCCCN3CCc4c(Cl)cccc4C3)nc12 = ?
10 to 100 nM

Query IC50 on long isoform of human D2 receptor (Homo sapiens) for O=C1NCCc2ccc(OCCCCN3CCc4ccsc4C3)nc2N1
> 10000 nM

###

# Target Under Test: long isoform of human D2 receptor (Homo sapiens, UniProt P14416)
# Run Description: Arrestin Agonist Assay (DRD2L PathHunter CHO-K1 cells, β-arrestin recruitment)
# Condition Details: CHO-K1, read-out: β-arrestin (agonist mode) Emax
# key: entry, value: Emax

Examples with answers:
smiles_entry=O=C1CCc2ccc(OCCCCN3CCc4nn(-c5ccccn5)cc4C3)cc2N1 value_reported="25 to 50%"
smiles_entry=CCOc1ccccc1N1CCN(CCCCOc2ccc3cn[nH]c3c2)CC1 value_reported="10 to 25%"
smiles_entry=O=C1CCc2ccc(OCCCCN3CCc4cc(C(F)(F)F)ccc4C3)nc2N1 value_reported="< 10%"
smiles_entry=Oc1cccc2ccc(OCCCCN3CCc4cc(F)ccc4C3)nc12 value_reported="< 10%"
smiles_entry=O=C1CCc2ccc(OCCCCN3CCc4nn(-c5ccccc5)cc4C3)cc2N1 value_reported="10 to 25%"
smiles_entry=CC(=O)Nc1cccc(OCCCCN2CCc3ccccc3C2)n1 value_reported="< 10%"

Can you share its Emax? I mean this molecule: O=c1ccc2ccc(OCCCCN3CCc4cc(Cl)ccc4C3)nc2[nH]1
< 10%

Query: Emax; subject: O=C1CCc2ccc(OCCCCN3CCc4c(cccc4C(F)(F)F)C3)nc2N1
50 to 75%

Quick check: Emax of N#Cc1cccnc1N1CCN(CCCCOc2cccc(-c3cc[nH]n3)n2)CC1 ?
25 to 50%

# query: Emax of entry O=C1CCc2ccc(OCCCCN3CCc4ccccc4C3)cc2N1
10 to 25%

Sample COc1cccnc1N1CCN(CCCCOc2cccc(-c3cc[nH]n3)n2)CC1 — what was its Emax?
10 to 25%

Any idea what Emax was measured for O=C1CCc2ccc(OCCCCN3CCc4ncncc4C3)cc2N1 ?
10 to 25%

Which measured Emax value corresponds to CCn1cc2c(n1)CCN(CCCCOc1ccc3c(c1)NC(=O)CC3)C2 ?
50 to 75%
